Provide the recorded log10 IC50 for the entries that follow.
Target: human chemokine receptor 2 isoform B (CCR2) (Homo sapiens)
Sequence (P41597 1-360 isoform P41597-2): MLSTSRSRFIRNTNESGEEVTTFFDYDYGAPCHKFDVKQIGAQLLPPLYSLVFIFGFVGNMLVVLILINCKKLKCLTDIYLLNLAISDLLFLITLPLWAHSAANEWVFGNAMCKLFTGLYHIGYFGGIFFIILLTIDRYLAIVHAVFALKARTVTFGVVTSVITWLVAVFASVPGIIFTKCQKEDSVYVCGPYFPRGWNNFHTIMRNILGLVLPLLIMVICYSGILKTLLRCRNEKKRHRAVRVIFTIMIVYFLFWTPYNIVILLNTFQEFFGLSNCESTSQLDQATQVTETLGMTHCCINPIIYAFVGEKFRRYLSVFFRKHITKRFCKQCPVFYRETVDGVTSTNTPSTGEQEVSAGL
Test: Calcium mobilization assay (FLIPR, MCP-1 stimulated CHOK1-CCR2B-A5 cells)
Conditions: Ca mobilisation assay, CCR2 antagonist activity, inhibition of MCP-1 induced calcium increase
Please note: log10 values; quantity IC50; unit nM.

Requested read-out log10 IC50, target or system human chemokine receptor 2 isoform B (CCR2) (Homo sapiens), entry C[C@H]1CCN(CCCN2CCN(C(=O)Nc3ccc(Cl)c(Cl)c3)[C@@H](C)C2=O)C[C@H]1O 0.85

Requested read-out log10 IC50, target or system human chemokine receptor 2 isoform B (CCR2) (Homo sapiens), entry CC(C)C(=O)OC[C@H](CCN1CCC2(CC2)[C@H](O)C1)N1CCN(C(=O)Nc2ccc(Cl)c(Cl)c2)[C@@H](C)C1=O 1.00

Requested read-out log10 IC50, target or system human chemokine receptor 2 isoform B (CCR2) (Homo sapiens), entry C[C@@H]1CN(CCCN2CCCCC2)C(=O)CCN1C(=O)Nc1ccc(Cl)c(Cl)c1 2.58

Requested read-out log10 IC50, target or system human chemokine receptor 2 isoform B (CCR2) (Homo sapiens), entry CN(C)C(=O)C(CCN1CCC2(CC2)[C@H](O)C1)N1CCN(C(=O)Nc2cccc(Cl)c2)CCC1=O (stereo partly shown) 2.89

Requested read-out log10 IC50, target or system human chemokine receptor 2 isoform B (CCR2) (Homo sapiens), entry C[C@H]1C(=O)N(CCCN2CCCCC2)CCN1C(=O)Nc1cccc(-c2ccccc2)c1 2.79

Requested read-out log10 IC50, target or system human chemokine receptor 2 isoform B (CCR2) (Homo sapiens), entry COC[C@H](CCN1CCC2(CC2)[C@H](O)C1)N1CCN(C(=O)Nc2ccc(F)c(Cl)c2)[C@@H](C)C1=O 0.48

Requested read-out log10 IC50, target or system human chemokine receptor 2 isoform B (CCR2) (Homo sapiens), entry COC[C@@H](CCN1CCC2(CC2)[C@H](O)C1)N1CCN(C(=O)Nc2ccc(Cl)c(Cl)c2)CCC1=O 2.38

====

Biological target: human chemokine receptor 2 isoform B (CCR2) (Homo sapiens)
Test: Calcium mobilization assay (FLIPR, MCP-1 stimulated CHOK1-CCR2B-A5 cells)
Details: Ca mobilisation assay, CCR2 antagonist activity, inhibition of MCP-1 induced calcium increase
EXPERIMENTAL READOUT: pIC50
Remember, pIC50 is on a log scale: it is -log10 of the molar concentration.

For the compound shown here, C[C@H]1C(=O)N(CCCN2CCC3(CC3)[C@H](O)C2)CCN1C(=O)Nc1ccccc1 [Example 74] , give the reported pIC50. 7.19

For the compound shown here, C[C@H]1C(=O)N(CCCN2CCCCC2)CCN1C(=O)Nc1cccc(Cl)c1 [Example 35] , give the reported pIC50. 6.03

For the compound shown here, C[C@H]1C(=O)N(CCCN2CCCCC2)CCN1C(=O)Nc1ccc(F)c(Cl)c1 [Example 42] , give the reported pIC50. 6.96

For the compound shown here, O=C(Nc1cccc(Cl)c1)N1CCC(=O)N([C@H](CO)CCN2CCC3(CC3)[C@H](O)C2)CC1 [Example 4] , give the reported pIC50. 8.00

For the compound shown here, C[C@H]1C(=O)N(C[C@@H](O)CN2CCC3(CC3)[C@H](O)C2)CCN1C(=O)Nc1ccc(Cl)c(Cl)c1 [Example 120] , give the reported pIC50. 8.70

For the compound shown here, C[C@H]1C(=O)N(CCCCN2CCC3(CC3)[C@H](O)C2)CCN1C(=O)Nc1cccc(C(F)(F)F)n1 [Example 101] , give the reported pIC50. 6.50

For the compound shown here, COC[C@H](CCN1CCC2(CC2)[C@H](O)C1)N1CCN(C(=O)Nc2ccccc2)[C@@H](C)C1=O [Example 84] , give the reported pIC50. 7.38

For the compound shown here, C[C@@H]1CN(CCCN2CCC3(CC3)[C@H](O)C2)C(=O)CCN1C(=O)Nc1ccc(Cl)c(Cl)c1 [Example 58] , give the reported pIC50. 8.52

For the compound shown here, O=C(NCc1ccc(Cl)c(Cl)c1)N1CCC(=O)N([C@H](CO)CCN2CCC3(CC3)[C@H](O)C2)CC1 [Example 51] , give the reported pIC50. 6.60

For the compound shown here, C[C@H]1C(=O)N(CCCN2CCC3(CC3)[C@H](O)C2)CCN1C(=O)Nc1cccc(Cl)c1 [Example 69] , give the reported pIC50. 8.30

For the compound shown here, COCC(CCN1CCC2(CC2)[C@H](O)C1)N1CC(C)N(C(=O)Nc2cccc(C(F)(F)F)c2)CCC1=O (stereo in doubt) [Example 66] , give the reported pIC50. 7.48

For the compound shown here, CC1CN(C(CO)CCN2CCC3(CC3)[C@H](O)C2)C(=O)CCN1C(=O)Nc1cccc(Cl)c1 (stereo in doubt) [Example 63] , give the reported pIC50. 8.29

For the compound shown here, Cc1ccc(NC(=O)N2CCC(=O)N(CCCN3CCC4(CC4)[C@H](O)C3)C[C@H]2C)cc1C [Example 61] , give the reported pIC50. 6.68

For the compound shown here, O=C1CCN(C(=O)Nc2ccc(Cl)c(Cl)c2)[C@H](Cc2ccccc2)CN1CCCN1CCCCC1 [Example 27] , give the reported pIC50. 6.27

For the compound shown here, O=C1CCN(C(=S)Nc2ccc(Cl)c(Cl)c2)CCN1CCCN1CCCCC1 [Example 18] , give the reported pIC50. 6.22

For the compound shown here, COCC(CCN1CCC2(CC2)[C@H](O)C1)N1CCN(C(=O)NCc2ccc(Cl)c(Cl)c2)CCC1=O (some centres unmarked) [Example 6] , give the reported pIC50. 6.08

For the compound shown here, C[C@H]1C(=O)N(CCCCN2CCC3(CC3)[C@H](O)C2)CCN1C(=O)Nc1cccc(-c2cccnc2)c1 [Example 94] , give the reported pIC50. 6.53

For the compound shown here, C[C@H]1C(=O)N(C[C@H](O)CN2CCC3(CC3)[C@H](O)C2)CCN1C(=O)Nc1cccc(Cl)c1 [Example 123] , give the reported pIC50. 6.61

For the compound shown here, O=C(NCc1ccc(Cl)c(Cl)c1)OC[C@H](CCN1CCC2(CC2)[C@H](O)C1)N1CCN(C(=O)NCc2ccc(Cl)c(Cl)c2)CCC1=O [Example 52] , give the reported pIC50. 6.02

For the compound shown here, O=C(Oc1ccc(Cl)c(Cl)c1)N1CCC(=O)N(C(CO)CCN2CCC3(CC3)[C@H](O)C2)CC1 (some centres unmarked) [Example 9] , give the reported pIC50. 6.38

For the compound shown here, O=C(Nc1cccc(Cl)c1)N1CCC(=O)N(C(CO)CCN2CCC3(CC3)[C@H](O)C2)CC1 (some centres unmarked) [Example 2] , give the reported pIC50. 7.40

For the compound shown here, C[C@H]1C(=O)N(C[C@H](O)CN2CCC3(CC3)[C@H](O)C2)CCN1C(=O)Nc1ccc(Cl)c(Cl)c1 [Example 122] , give the reported pIC50. 7.64

For the compound shown here, COC(=O)C(CCN1CCC2(CC2)[C@H](O)C1)N1CCN(C(=O)Nc2cccc(Cl)c2)CCC1=O (some centres unmarked) [Example 1] , give the reported pIC50. 6.33

For the compound shown here, COCC(CCN1CCC2(CC2)[C@H](O)C1)N1CCN(C(=O)Nc2ccc(Cl)c(Cl)c2)CCC1=O (some centres unmarked) [Example 55] , give the reported pIC50. 8.40

For the compound shown here, C[C@H]1C(=O)N(CCCN2CCCCC2)CCN1C(=O)Nc1ccc(-c2ccccc2)cc1 [Example 38] , give the reported pIC50. 6.68

For the compound shown here, C[C@H]1C(=O)N(CCCCN2CCC3(CC3)[C@H](O)C2)CCN1C(=O)Nc1ccc2ccccc2c1 [Example 91] , give the reported pIC50. 8.22

For the compound shown here, C[C@H]1C(=O)N(CCCN2CCC3(CC3)[C@H](O)C2)CCN1C(=O)NCc1ccc(Cl)cc1 [Example 77] , give the reported pIC50. 6.96

For the compound shown here, COc1ccc(C(=O)OC[C@H](CCN2CCC3(CC3)[C@H](O)C2)N2CCN(C(=O)Nc3ccc(Cl)c(Cl)c3)[C@@H](C)C2=O)cc1 [Example 119] , give the reported pIC50. 8.40

For the compound shown here, CC(C)OC(=O)OC[C@H](CCN1CCC2(CC2)[C@H](O)C1)N1CCN(C(=O)Nc2ccc(Cl)c(Cl)c2)[C@@H](C)C1=O [Example 113] , give the reported pIC50. 9.00

Data credit: patent US8071586B2
